Values were extracted from patent US20230265151A1.

Measured target: T1, human GIP receptor (human, UniProt P48546 22-466)
T1 sequence (looked up): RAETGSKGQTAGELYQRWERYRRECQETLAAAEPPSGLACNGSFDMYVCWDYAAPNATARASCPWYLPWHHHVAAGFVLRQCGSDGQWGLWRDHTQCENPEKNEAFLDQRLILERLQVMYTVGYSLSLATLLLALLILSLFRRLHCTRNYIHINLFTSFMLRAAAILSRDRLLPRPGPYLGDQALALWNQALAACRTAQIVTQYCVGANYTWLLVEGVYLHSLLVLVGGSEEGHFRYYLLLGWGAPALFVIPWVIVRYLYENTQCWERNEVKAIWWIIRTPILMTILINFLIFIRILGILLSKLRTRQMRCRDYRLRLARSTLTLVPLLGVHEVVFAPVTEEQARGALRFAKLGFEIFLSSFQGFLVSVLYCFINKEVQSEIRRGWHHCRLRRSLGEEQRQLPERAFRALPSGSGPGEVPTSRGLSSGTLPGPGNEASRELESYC
Experimental protocol: cell-based or functional assay
The following binders are listed with their measured cAMP EC50 (1.0% HSA) values.
The answer is to be given in nM; state only the numeric part.

Solved cases (2 shown):
>  <Binder>
YXEGTXTSDYXIXLDXIAQXEFIKXLIKGGPSSGAPPPS (Y-Aib-EGT-αMeF(2F)-TSDY-Aib-I-αMeL-LD-Orn-IAQ-Aib-EFIK((2-[2-(2-Amino-ethoxy)-ethoxy]-acetyl)-(γ-Glu)-(2-[2-(2-Amino-ethoxy)-ethoxy]-acetyl)-CO-(CH2)12-CO2H)-αMeY-LIK((2-[2-(2-Amino-ethoxy)-ethoxy]-acetyl)-(γ-Glu)-(2-[2-(2-Amino-ethoxy)-ethoxy]-acetyl)-CO-(CH2)12-CO2H)GGPSSGAPPPS-NH2) [Example 365]

>  <Reading unit>
nM

>  <cAMP EC50 (1.0% HSA)>
1.93

$$$$
>  <Binder>
YXEGTXTSDXXIXLDXQAQXEFIKXLIKGGPSSGAPPPS (Y-Aib-EGT-αMeF(2F)-TSD-4Pal-Aib-I-αMeL-LD-Orn-QAQ-Aib-EFIK((2-[2-(2-Amino-ethoxy)-ethoxy]-acetyl)2-(γ-Glu)-(10-(4-carboxyphenoxy)decanoyl))-αMeY-LIK((2-[2-(2-Amino-ethoxy)-ethoxy]-acetyl)2-(γ-Glu)-(10-(4-carboxyphenoxy)decanoyl))GGPSSGAPPPS-NH2) [Example 403]

>  <Reading unit>
nM

>  <cAMP EC50 (1.0% HSA)>
0.711

$$$$

Challenge: Find the recorded cAMP EC50 (1.0% HSA) belonging to YXEGTXTSDXXIXLDXKAQXKFIXXLIEGGPSSGAPPPS (Y-Aib-EGT-αMeF(2F)-TSD-4Pal-Aib-I-αMeL-LD-Orn-K((2-[2-(2-Amino-ethoxy)-ethoxy]-acetyl)-(γ-Glu)-(10-(4-carboxyphenoxy)decanoyl))AQ-Aib-K((2-[2-(2-Amino-ethoxy)-ethoxy]-acetyl)-(γ-Glu)-(10-(4-carboxyphenoxy)decanoyl))FI-(D-Glu)-αMeY-LIEGGPSSGAPPPS-NH2) [Example 360] and report it.
Response given: 1.91
